# Tested on: antithrombin III (plasma purified human AT-III), used as the AT-III/unfractionated heparin complex
# Procedure text: K0.5 ratio to Catalyst Biosciences WT FIXa, AT-III/UFH inhibition assay
Measured K0.5-mut/K0.5-wt accompanies every entry in the list below.
Metric: K0.5-mut/K0.5-wt (fold)

>  <Protein>
FIXa-D203N/F205T/R338E/R403E (protein) chain 1: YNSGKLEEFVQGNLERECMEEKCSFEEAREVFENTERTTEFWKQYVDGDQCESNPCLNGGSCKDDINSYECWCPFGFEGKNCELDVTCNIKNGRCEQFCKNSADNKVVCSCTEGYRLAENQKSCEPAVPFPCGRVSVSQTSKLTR chain 2: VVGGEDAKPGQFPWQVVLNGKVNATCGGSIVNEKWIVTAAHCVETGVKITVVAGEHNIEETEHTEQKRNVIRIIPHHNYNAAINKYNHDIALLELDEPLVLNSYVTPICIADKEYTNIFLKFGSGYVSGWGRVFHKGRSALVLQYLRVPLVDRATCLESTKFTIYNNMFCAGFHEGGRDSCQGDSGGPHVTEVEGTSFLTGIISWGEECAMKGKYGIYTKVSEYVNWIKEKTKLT

>  <Metric>
K0.5-mut/K0.5-wt

>  <Val>
78.6

$$$$
>  <Protein>
FIXa-Y155F/R318Y/R338E/E410N (protein) chain 1: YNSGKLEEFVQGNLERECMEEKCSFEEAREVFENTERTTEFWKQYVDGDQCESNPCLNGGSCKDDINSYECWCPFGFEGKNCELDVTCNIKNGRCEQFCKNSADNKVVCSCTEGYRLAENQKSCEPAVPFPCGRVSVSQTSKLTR chain 2: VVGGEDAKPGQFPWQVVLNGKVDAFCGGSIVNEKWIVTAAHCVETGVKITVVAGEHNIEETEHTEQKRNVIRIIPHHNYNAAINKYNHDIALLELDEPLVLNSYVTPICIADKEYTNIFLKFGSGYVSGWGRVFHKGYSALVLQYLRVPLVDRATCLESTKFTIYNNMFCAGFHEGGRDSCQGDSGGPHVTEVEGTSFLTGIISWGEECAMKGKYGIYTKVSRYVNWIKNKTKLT

>  <Metric>
K0.5-mut/K0.5-wt

>  <Val>
56.8

$$$$
